Target: IRAK4 (Homo sapiens)
Test: 2-hour 1 mM ATP IRAK4 Biochemical assay (as above, but with 100 pM IRAK4 and 1 mM ATP)
Conditions: IRAK4 MSD BIOCHEMICAL (1 mM ATP) IC50 (μM), 100 pM IRAK4, 2 hours
Threshold 0.01 µM: IC50 strictly smaller gives Y, otherwise N.

Exercise: Strictly below 0.01 µM in IC50? CC(C)Oc1nc(NC(=O)c2cccc(C(F)F)n2)cn2cc(C3CCOCC3)nc12
Key: N

Exercise: Strictly below 0.01 µM in IC50? CCOc1cc2nc(C3CCOCC3)cn2cc1NC(=O)c1ccn(CC)n1
Key: N

Exercise: Is IC50 of CC(C)Oc1cc2nc(C(C)(C)C(=O)O)cn2cc1NC(=O)c1cccc(C(F)F)n1 strictly below 0.01 µM?
Key: Y

Exercise: Is 0.01 µM strictly greater than the compound's reported IC50? compound: CCOc1cc2nc(C3(OC)CC3)cn2cc1NC(=O)c1cccc(C(F)F)n1
Key: Y

Exercise: For this compound, is IC50 lower than 0.01 µM? CCOc1cc2nc(CF)cn2cc1NC(=O)c1cccc(C(F)(F)F)n1
Key: Y

Exercise: Consider COc1nc(NC(=O)c2cccc(C(F)F)n2)cn2cc(C34COC(C)(C3)C4)nc12 [Example 554, 2,2,2-trifluoroacetate] . Does its IC50 lie strictly below 0.01 µM?
Key: N

Exercise: Input COc1nc(NC(=O)c2cccc(C(F)F)n2)cn2cc(C34CCOC(C)(C3)C4)nc12 ; condition: IC50 strictly below 0.01 µM. Does it hold?
Key: Y

Exercise: Please indicate whether the reported IC50 of CC12CC(c3cn4cc(NC(=O)c5cccc(C(F)F)n5)ncc4n3)(CO1)C2 is strictly below 0.01 µM.
Key: N

Exercise: Given the entry COc1c(F)cccc1C(=O)Nc1cn2cc(Cl)nc2cc1OC(C)C [Example 402, 2,2,2-trifluoroacetate] , would its reported IC50 be below 0.01 µM?
Key: N

Exercise: Find out if reported IC50 for CCCOc1nc(NC(=O)c2cccc(C(F)F)n2)cn2cc(C34COC(C)(C3)C4)nc12 is less than 0.01 µM
Key: Y

Exercise: Take the compound CC12CC(c3cn4cc(NC(=O)c5cccc(C(F)F)n5)c(C(F)F)cc4n3)(CO1)C2 [Example 393, 2,2,2-trifluoroacetate] and say whether its IC50 is less than 0.01 µM.
Key: Y

Exercise: Item CCOc1cc2nc(C3CNC3)cn2cc1NC(=O)c1cccc(C(F)(F)F)n1 : IC50 beneath 0.01 µM, strictly?
Key: Y

Exercise: # check: IC50 < 0.01 µM for COc1nc(NC(=O)c2cccc3c2OCC3(F)F)cn2cc(C3CCOCC3)nc12
Key: N

Exercise: Identify whether the compound COCCn1ccc(C(=O)Nc2cn3cc(C4CCOCC4)nc3cc2OC(C)C)n1 [Example 383, 2,2,2-trifluoroacetate] records IC50 below 0.01 µM.
Key: N

Exercise: # TODO verify IC50 < 0.01 µM strictly for this compound: CCOc1cc2nc(C[C@@H]3CCOC3)cn2cc1NC(=O)c1cccc(C(F)F)n1 (single isomer, unassigned)
Key: Y

Exercise: Is it true that IC50 reported for COc1ncccc1C(=O)Nc1cn2cc(C34COC(C)(C3)C4)nc2cc1OC(F)F [Example 396, 2,2,2-trifluoroacetate] is less than 0.01 µM?
Key: Y

Exercise: Input Cn1ccc(C(=O)Nc2cn3cc(C45COC(C)(C4)C5)nc3c(F)c2OC2CCCC2)n1 [Example 437, 2,2,2-trifluoroacetate] ; condition: IC50 strictly below 0.01 µM. Does it hold?
Key: Y

Exercise: Say whether its IC50 is strictly beneath 0.01 µM. Entry: CCc1cc(NC(=O)c2cccc(C(F)F)n2)cn2cc(C3CCOCC3)nc12
Key: N

Exercise: Lab note: IC50 threshold 0.01 µM. Does this compound come in strictly under it? COc1nc(NC(=O)c2cccc3ccnn23)cn2cc(C34COC(C)(C3)C4)nc12
Key: N

###

Assign IC50 to each entry below.
Biological target: IRAK4 (Homo sapiens)
Sequence (Q9NWZ3 1-460): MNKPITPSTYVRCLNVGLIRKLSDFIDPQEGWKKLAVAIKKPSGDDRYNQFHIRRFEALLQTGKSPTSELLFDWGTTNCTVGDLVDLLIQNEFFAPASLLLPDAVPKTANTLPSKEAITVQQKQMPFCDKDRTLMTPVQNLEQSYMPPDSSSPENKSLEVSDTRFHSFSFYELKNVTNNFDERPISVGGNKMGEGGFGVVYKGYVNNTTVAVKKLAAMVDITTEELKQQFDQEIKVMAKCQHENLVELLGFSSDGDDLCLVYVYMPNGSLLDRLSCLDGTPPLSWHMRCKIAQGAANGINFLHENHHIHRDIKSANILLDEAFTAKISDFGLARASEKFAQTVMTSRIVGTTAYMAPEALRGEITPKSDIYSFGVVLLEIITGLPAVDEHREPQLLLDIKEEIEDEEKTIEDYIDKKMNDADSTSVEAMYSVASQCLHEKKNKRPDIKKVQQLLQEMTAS
Test: 2-hour 10 μM ATP Biochemical Assay (MesoScale Detection format; IRAK4 phosphorylation of biotin labeled IRAK1 activation loop peptide)
Settings: IRAK4 MSD BIOCHEMICAL (10 μM ATP) IC50 (μM), 1 nM IRAK4, 2 hours
Output spec: scalar in µM, unitless text.

Here COc1cc(NC(=O)c2cccc(C(F)F)n2)cn2cc(C3CCOCC3)nc12 [Example 304] was tested on IRAK4 (Homo sapiens), and its IC50 came to 0.006

Kindly note: IRAK4 (Homo sapiens), CC1(COc2cc3nc(C[C@H]4CCOC4)cn3cc2NC(=O)c2cccc(C(F)(F)F)n2)COC1 (single isomer, unassigned) [Example 165] , IC50 value reported: 0.002

Per the reported IRAK4 (Homo sapiens) data, CCOc1cc2nc(CC3CCOC3)cn2cc1NC(=O)c1ccn(C)n1 (stereo not shown) [Example 155] has IC50 of 0.005

Item CCOc1cc2nc(C3CCOCC3)cn2cc1NC(=O)c1cccc(C)c1 [Example 229] ; assay system IRAK4 (Homo sapiens); IC50 reported as 0.025

###

Target: IRAK4 (Homo sapiens, UniProt Q9NWZ3)
Assay: 2-hour 10 μM ATP Biochemical Assay (MesoScale Detection format; IRAK4 phosphorylation of biotin labeled IRAK1 activation loop peptide)
Settings: IRAK4 MSD BIOCHEMICAL (10 μM ATP) IC50 (μM), 1 nM IRAK4, 2 hours
readout: IC50 (µM)
// units = µM; emit number, no label

Query CCOc1cc2nc(CC3CCOC3)cn2cc1NC(=O)c1coc(-c2cnn(C)c2)n1 (single isomer, unassigned) [Example 252] yields IC50 of 0.001

CCOc1cc2nc(C3CCOCC3)cn2cc1NC(=O)c1cccc(C2CC2)n1 has a reported IC50 of 0.003

response.value for CCOc1cc2nc(C3CCOCC3)cn2cc1NC(=O)c1ccn(C)n1 (field: IC50) = 0.004

Given item CCOc1cc2nc(CC)cn2cc1NC(=O)c1cc(C)c(C)cn1 , the value recorded as its IC50 is 2.3

According to the records, this compound CCOc1cc2nc(C3(OCC)CCOCC3)cn2cc1NC(=O)c1cccc(C(F)F)n1 displays IC50 of 0.001

###

Biological target: IRAK4 (Homo sapiens, UniProt Q9NWZ3)
Assay: 2-hour 1 mM ATP IRAK4 Biochemical assay (as above, but with 100 pM IRAK4 and 1 mM ATP)
Details: IRAK4 MSD BIOCHEMICAL (1 mM ATP) IC50 (μM), 100 pM IRAK4, 2 hours
readout: IC50 (µM)
Express your answer in µM, writing the number without its unit.

Reported IC50 ( COc1ccccc1C(=O)Nc1cn2cc(C34COC(C)(C3)C4)nc2c(F)c1OC(C)C [Example 424, 2,2,2-trifluoroacetate] ) = 0.017

// sample CCOc1cc(NC(=O)c2cccc(C)n2)cn2cc([C@H]3[C@@H]4COC[C@@H]43)nc12 , its IC50 was 0.022

get_value(item= CC(C)Oc1c(NC(=O)c2coc(C3CC3)n2)cn2cc(C34COC(C)(C3)C4)nc2c1F , readout=IC50) returns 0.001

###

Target: IRAK4 (Homo sapiens)
Test: 2-hour 10 μM ATP Biochemical Assay (MesoScale Detection format; IRAK4 phosphorylation of biotin labeled IRAK1 activation loop peptide)
Details: IRAK4 MSD BIOCHEMICAL (10 μM ATP) IC50 (μM), 1 nM IRAK4, 2 hours
readout: IC50
# do not omit the unit; it follows the number

The value of IC50 recorded for CCOc1cc2nc(C3CCOCC3)cn2cc1NC(=O)c1cccc(OC(F)F)n1 [Example 362] when tested on IRAK4 (Homo sapiens) reads 0.006 µM

Value sought: IC50, system IRAK4 (Homo sapiens), item O=C(Nc1cn2cc(C3CC3)nc2cn1)c1cccc(C(F)F)n1 [Example 31] . Result: 0.089 µM

The reported IRAK4 (Homo sapiens) IC50 of CCOc1cc2nc([C@H]3C[C@@H](O)C3)cn2cc1NC(=O)c1cccc(C(F)F)n1 [Example 97] is 0.002 µM

# value of IC50, IRAK4 (Homo sapiens), item O=C(Nc1cn2cc(C3CC3)nc2cc1O)c1cccc(C(F)F)n1 [Example 10] = 0.059 µM

Note to self: IC50 of CCOc1cc2nc(C(C)(C)O)cn2cc1NC(=O)c1cccc(C(F)(F)F)n1 [Example 19] with IRAK4 (Homo sapiens) was 0.009 µM

// IC50 (IRAK4 (Homo sapiens)) for O=C1CC[C@@H](CCOc2cc3nc(C4CC4)cn3cc2NC(=O)c2cccc(C(F)F)n2)N1 [Example 73] = 0.011 µM

IC50 for IRAK4 (Homo sapiens) with input COc1cc2nc(C3CC3)cn2cc1NC(=O)c1cccc(C(F)F)n1 [Example 4] equals 0.004 µM

The compound O=C(Nc1cc(Br)c2nc(C3CCOCC3)cn2c1)c1cccc(C(F)(F)F)n1 [Example 106] on IRAK4 (Homo sapiens): IC50 was 0.027 µM

Given the compound CC1(C)CC(Oc2cc3nc(C4CCOCC4)cn3cc2NC(=O)c2cccc(C(F)F)n2)CO1 (centres unmarked) [Example 184] and test system IRAK4 (Homo sapiens), the measured IC50 is 0.001 µM

Item CCOc1cc2nc([C@@H](F)[C@@H]3CCOC3)cn2cc1NC(=O)c1cccc(C(F)(F)F)n1 (single isomer, unassigned) [Example 145] was tested on IRAK4 (Homo sapiens); the reported IC50 is 0.001 µM

Reported IRAK4 (Homo sapiens) IC50 for item CCOc1cc2nc(CC3CCCO3)cn2cc1NC(=O)c1cccc(C(F)(F)F)n1 (centres unmarked) [Example 60] was 0.002 µM
